B1: C9orf25 (parent)
chain: LARKGSLKNGSMGSPVNQQPKKNN

# Variants of: B1
# experimental protocol: protein stability index of a GFP-peptide fusion (GPS, HEK-293T) (PSI 1-6); higher = more stable;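 further: lentivirally expressed fusions sorted by FACS into six bins by GFP to DsRed ratio, PSI derived from sequencing read proportions per bin multiplied by bin number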
# assay context: c terminus: a fixed tail appended
Quick reference for protein stability index among some variants
Write the number on its own, no unit after it.

Examples with answers:
Prompt: Form field: reported protein stability index of `M12G`
Response: 4.49

Prompt: Form field: reported protein stability index of `G5D`
Response: 4.58

Prompt: Form field: reported protein stability index of `Q18G`
Response: 4.37

Prompt: Form field: reported protein stability index of `S14L`
Response: 4.5

More entries:
Prompt: Form field: reported protein stability index of `N9A`
Response: 4.6

Prompt: Form field: reported protein stability index of `V16A`
Response: 4.69

Prompt: Form field: reported protein stability index of `V16E`
Response: 5.39

Prompt: Form field: reported protein stability index of `G10W`
Response: 3.89

Prompt: Form field: reported protein stability index of `N23H`
Response: 4.91

Prompt: Form field: reported protein stability index of `K22L`
Response: 3.81

Prompt: Form field: reported protein stability index of `A2N`
Response: 4.59

Prompt: Form field: reported protein stability index of `S14R`
Response: 4.23

Prompt: Form field: reported protein stability index of `N24V`
Response: 3.85

Prompt: Form field: reported protein stability index of `A2V`
Response: 4.07

Prompt: Form field: reported protein stability index of `M12Q`
Response: 4.4

Prompt: Form field: reported protein stability index of `L7S`
Response: 4.83

Prompt: Form field: reported protein stability index of `S11L`
Response: 4.19

Prompt: Form field: reported protein stability index of `P15N`
Response: 4.42

Prompt: Form field: reported protein stability index of `G13H`
Response: 4.58

Prompt: Form field: reported protein stability index of `S6M`
Response: 4.38

Prompt: Form field: reported protein stability index of `K8F`
Response: 4.42
